Collected IC50 for Proto-oncogene tyrosine-protein kinase Src (Homo sapiens, UniProt P12931) across several studies; compounds listed below.

Worked cases, answers included:
# Compound, IC50
data = [
    ("O=c1cnc2cnc(Nc3ccc(N4CCOCC4)cc3)nc2n1C1CCCC1", "8470 nM"),
    ("COC(=O)c1cc2cc(NCc3nccs3)cnc2[nH]1", "100 to 10000 nM"),
    ("Clc1cc(Cl)c(N/N=C/c2ccncc2)c(Cl)c1", "2000 nM"),
    ("Cc1c(NS(C)(=O)=O)cccc1C(=O)c1c[nH]c2ncc(-c3ccccc3)cc12", "≤ 10000 nM"),
    ("N#Cc1cnc2[nH]cc(C(=O)c3c(F)ccc(NS(=O)(=O)c4ccccc4)c3F)c2c1", "≤ 10000 nM"),
    ("CC(C)C(C)OC(=O)Nc1cnc2[nH]c(-c3ccccc3)nc2c1 (centres unmarked)", "500 to 1500 nM"),
    ("CN1C(=O)N(c2cc(NC(=O)c3ccc(-c4ccc[nH]4)cc3)ccc2Cl)Cc2cnc(N)nc21", "50 to 150 nM"),
]

Continue with the next compound.
input: Param readout = IC50; param system = Proto-oncogene tyrosine-protein kinase Src (Homo sapiens, UniProt P12931); param query = CCCS(=O)(=O)Nc1ccc(F)c(C(=O)c2c[nH]c3ncc(Nc4ccccc4)cc23)c1F ; response: value
output: ≤ 10000 nM

* * *

Collected pIC50 for Proto-oncogene tyrosine-protein kinase Src (Homo sapiens) across several studies; molecules listed below.
Kindly note that pIC50 refers to -log10 of the concentration in mol/L and answer with the value alone.

Worked cases, answers included:
# Chemical Structure, Value Measured
data = [
    ("CSc1cccc(Nc2ncc3cc(-c4ccccc4Br)c(C(N)=O)nc3n2)c1", 8.11),
    ("O=C(Nc1ccc(Cl)c(C(=O)Nc2cnc(Nc3ccc(O)cc3)nc2)c1)c1cccc(C(F)(F)F)c1", 7.72),
    ("COc1c(NC(=O)c2ccc(C)c(-c3ccc4nc(Nc5cc(OS(C)(=O)=O)cc(C(=O)NCCN6CCOCC6)c5)ncc4c3)c2)cc(C(C)(C)C)cc1NS(C)(=O)=O", 7.70),
    ("C#Cc1cc(Nc2nccc(Oc3ccc(NC(=O)Nc4cc(C(C)(C)C)nn4-c4ccc(C)cc4)c4ccccc34)n2)cc(C(=O)NCCOCCOC)c1", 7.70),
    ("COc1cc(Nc2nccc(Oc3ccc(NC(=O)Nc4cc(C(C)C)nn4-c4cccc(CP(C)(C)=O)c4)c4ccccc34)n2)cc(C(=O)NCCN2CCOCC2)c1", 8.70),
]

input: # input molecule: Cc1ccc(-n2nc(C(C)(C)C)cc2NC(=O)Nc2ccc(OCc3ccnc(Nc4cnccn4)c3)c3ccccc23)cc1 ; wanted: its pIC50
output: 7.01

* * *

Collected pIC50 for Proto-oncogene tyrosine-protein kinase Src (Homo sapiens, UniProt P12931) across several studies; compounds listed below.
pIC50: −log10 of the molar value.
Could you label it Satisfied if measured pIC50 is 7 or higher, and Not satisfied otherwise?

Use the examples below as a reference point.
# Chemical Structure, Label Class
measured = [
    ("COc1cc(Nc2cc(Oc3ccc(NC(=O)Nc4cc(C(C)(C)C)cc(NS(C)(=O)=O)c4OC)c4ccccc34)ccn2)ccc1S(=O)(=O)N(C)CCN1CCOCC1", "Not satisfied"),
    ("Cc1ccc(NC(=O)c2cccc(C(F)(F)F)c2)cc1N1CCc2nc(Nc3ccc(C(=O)N4CCN(C)CC4)cc3)ncc2C1=O", "Satisfied"),
    ("COc1cc(Nc2c(C#N)cnc3cc(-c4ccc(-c5nnn[nH]5)cc4)ccc23)c(Cl)cc1Cl", "Satisfied"),
]

Okay, now this compound:
input: Dear colleague, could you confirm whether COc1cccc(Nc2cc(Oc3ccc(NC(=O)Nc4cc(C(C)(C)C)cc(CC(N)=O)c4OC)c(Cl)c3Cl)ccn2)c1 has pIC50 at or above 7?
output: Satisfied
